Origin of the recorded values: ChEMBL document CHEMBL4229533

target_desc: MAP kinase-interacting serine/threonine-protein kinase 2 (Homo sapiens)
Sequence (Q9HBH9 whole entry, looked up): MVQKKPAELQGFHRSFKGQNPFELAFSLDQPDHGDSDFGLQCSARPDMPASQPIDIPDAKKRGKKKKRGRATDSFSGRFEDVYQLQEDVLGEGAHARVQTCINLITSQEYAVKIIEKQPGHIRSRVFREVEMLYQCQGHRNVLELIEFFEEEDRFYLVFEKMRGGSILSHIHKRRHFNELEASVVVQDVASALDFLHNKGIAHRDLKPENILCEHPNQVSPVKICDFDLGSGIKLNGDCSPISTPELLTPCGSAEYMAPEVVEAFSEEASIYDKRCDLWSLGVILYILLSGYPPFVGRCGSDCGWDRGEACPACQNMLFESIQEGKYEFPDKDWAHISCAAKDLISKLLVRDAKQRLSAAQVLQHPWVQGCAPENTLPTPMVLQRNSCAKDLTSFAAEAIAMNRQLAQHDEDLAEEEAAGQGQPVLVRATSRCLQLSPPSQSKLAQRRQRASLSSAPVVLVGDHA
method_description: Inhibition of MNK2 (unknown origin) at 10 uM using S3 as substrate measured after 60 mins by HTRF assay relative to control
Provide the reported inhibition of each item.
Answers are plain numbers, in %.

Before answering, review these 10 worked examples.
{"columns": ["structure_smiles", "inhibition (%)"],
 "data": [
  ["COc1cc(O)c(C(N)=O)c2oc(C(=O)N(C)C)c(C)c12", 45],
  ["COc1cc(O)c(C(N)=O)c2oc(C(=O)Nc3ccc(F)c(C(F)(F)F)c3)c(C)c12", 35],
  ["COc1cc(O)c(C(N)=O)c2oc(C(=O)Nc3ccccc3)c(C)c12", 0],
  ["COc1cc(O)c(C(N)=O)c2oc(C(=O)NC3CCN(Cc4ccncc4)CC3)c(C)c12", 32],
  ["COc1cc(O)c(C(N)=O)c2oc(C(=O)N(C)Cc3ccccc3)c(C)c12", 0],
  ["CCN1CCN(C(=O)c2oc3c(C(N)=O)c(O)cc(OC)c3c2C)CC1", 79],
  ["COc1cc(O)c(C(N)=O)c2oc(C(=O)NCC3CCN(Cc4cccc(C(F)(F)F)c4)CC3)c(C)c12", 49],
  ["CCOC(=O)c1oc2c(C(N)=O)c(O)cc(OC)c2c1C", 41],
  ["COc1cc(O)c(C(N)=O)c2oc(C(=O)NCC3CCN(Cc4ccc(F)cc4)CC3)c(C)c12", 41],
  ["COc1cc(OC)c2c(C)c(C(=O)NC3CCN(Cc4cccc(C(F)(F)F)c4)CC3)oc2c1C(N)=O", 29]
]}

// input: 6 compounds below; output: inhibition for each
1. COc1ccc2c(C)c(C(=O)NC3CCN(Cc4cccc(C(F)(F)F)c4)CC3)oc2c1
2. COc1cc(OC)c2c(C)c(C(=O)NC3CCN(Cc4cccc(C(F)(F)F)c4)CC3)oc2c1
3. COc1cc(O)c(C(N)=O)c2oc(C(=O)N3CCN(c4ccccc4)CC3)c(C)c12
4. COc1cc(O)c(C(N)=O)c2oc(C(=O)N3CCOCC3)c(C)c12
5. COc1cc(O)c(C(N)=O)c2oc(C(=O)NCC3CCN(C(=O)c4ccc(F)cc4)CC3)c(C)c12
6. COc1cc(O)c(C(N)=O)c2occ(C)c12

Resp:
27
35
15
24
23
77

Return reported inhibition values for all items listed beneath this line.
1. COc1cc(O)c(C(N)=O)c2oc(C(=O)N3CCCCC3)c(C)c12
2. COc1cc(O)c(C(N)=O)c2oc(C(=O)NC3CCCC3)c(C)c12
3. COc1cc(O)c(C(N)=O)c2oc(C(=O)NC3CCN(Cc4ccc(C(F)(F)F)cc4)CC3)c(C)c12
4. COc1cc(O)c(C(N)=O)c2oc(C(=O)NC3CCCCC3)c(C)c12

Resp:
23
22
43
28

====

Please provide measured inhibition for the entries that follow.
target_desc: MAP kinase-interacting serine/threonine-protein kinase 1 (Homo sapiens)
method_description: Inhibition of MNK1 (unknown origin) at 10 uM using S3 as substrate measured after 60 mins by HTRF assay relative to control
Give bare numbers, in %.

Below: 4 compounds and their reported inhibition.
{"columns": ["structure_smiles", "measurement_name", "data_value"],
 "data": [
  ["CCN1CCN(C(=O)c2oc3c(C(N)=O)c(O)cc(OC)c3c2C)CC1", "inhibition", 30],
  ["COc1cc(O)c(C(N)=O)c2oc(C(=O)NC3CCN(Cc4cccc(C(F)(F)F)c4)CC3)c(C)c12", "inhibition", 59],
  ["CNC(=O)c1oc2c(C(N)=O)c(O)cc(OC)c2c1C", "inhibition", 39],
  ["COc1cc(O)c(C(N)=O)c2oc(C(=O)Nc3ccc(C)c(C(F)(F)F)c3)c(C)c12", "inhibition", 23]
]}

Next:
Req: Check the records and state inhibition for `COc1cc(O)c(C(N)=O)c2occ(C)c12`
Resp: 39
